tested on: HOP-62 NSCLC; assay: NCI tumour cell line growth inhibition, 48 h
endpoint_label: TGI

Below, each entry is followed by its recorded TGI result.
C=C1C(=O)C23C(O)CC4C5(C)CCCC4(C(O)OC5)C2C(OC(C)=O)CC1C3O (centres undefined): 32.2 µM
CCn1c(-c2nonc2N)nc2ccncc21: > 25 µM
COC(=O)C1(O)C(c2ccccc2)=NC2(C)CCCC21 (centres undefined): > 100 µM
COC(=O)c1ccc2c(c1)C(=O)c1c-2n(CCCN=[N+]=[N-])c(=O)c2cc([N+](=O)[O-])ccc12: 67.5 µM
Cc1ccc(-n2nc(C(C)(C)C)cc2NC(=O)NCc2cc(F)ccc2Oc2ccc3c(cnn3CCO)c2)cc1: > 81.5 µM
CC(=Nc1ccc(S(N)(=O)=O)cc1)c1c(O)[nH]c2ccccc12: > 25 µM
COc1cc([N+](=O)[O-])c(OC)c2c(Nc3ccc(S(=O)(=O)O)c4cc(S(=O)(=O)O)cc(S(=O)(=O)O)c34)cc(C)nc12: > 100 µM
CCN(CC)c1ccc(/C=C/C2=[N+](C)c3ccccc3C2(C)C)c(C)c1: 1.74 µM

Turning to the following compound.
Q) Sample Cc1cc(C)nc(NS(=O)(=O)c2ccc(NC(=O)c3cccc4c(NNc5ccc(S(=O)(=O)N=C(N)N)cc5)c5ccccc5nc34)cc2)n1 — what was its TGI?
A) > 50 µM
